# target.system: human hNET (Homo sapiens, UniProt P23975)
# Construct: expressed in transfected cells
# Sequence (P23975 whole entry): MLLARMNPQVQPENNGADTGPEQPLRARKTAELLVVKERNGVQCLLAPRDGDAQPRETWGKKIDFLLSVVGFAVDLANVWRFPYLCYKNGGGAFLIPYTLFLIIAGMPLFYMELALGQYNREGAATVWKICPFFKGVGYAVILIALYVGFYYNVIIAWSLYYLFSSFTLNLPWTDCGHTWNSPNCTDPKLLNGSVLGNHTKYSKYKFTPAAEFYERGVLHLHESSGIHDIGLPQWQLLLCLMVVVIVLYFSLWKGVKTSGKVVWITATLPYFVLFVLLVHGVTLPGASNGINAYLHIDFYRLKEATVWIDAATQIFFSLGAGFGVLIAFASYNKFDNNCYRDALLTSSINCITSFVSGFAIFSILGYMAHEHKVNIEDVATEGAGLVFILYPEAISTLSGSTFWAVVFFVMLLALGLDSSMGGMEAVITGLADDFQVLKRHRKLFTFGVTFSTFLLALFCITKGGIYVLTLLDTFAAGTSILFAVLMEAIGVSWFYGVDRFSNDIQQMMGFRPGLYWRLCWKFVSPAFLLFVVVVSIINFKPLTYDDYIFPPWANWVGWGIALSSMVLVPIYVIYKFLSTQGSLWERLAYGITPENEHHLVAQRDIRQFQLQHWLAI
# test: Norepinephrine (NE) uptake assay in MDCK-Net6 cells
# Type: cell-based
# condition.set: 1 μM test compound, [3H]NE uptake
Where a name gives a salt, the structure may show the parent alone.
The threshold is inclusive: inhibition at 1 µM of exactly 30% counts as Met; values below receive Not met.

Request: Does inhibition at 1 µM meet or surpass 30% for COc1ccc(C(CN2CCNCC2)C2(O)CCC(C(C)(C)C)CC2)cc1Br (stereo not shown) [Example 84, dihydrochloride] ?
Response: Not met

Next:
Request: Does inhibition at 1 µM meet or surpass 30% for CCCC(O)(CCC)C(CN1CCNCC1)c1cccc(Br)c1 (stereo not shown) [Example 81, dihydrochloride] ?
Response: Not met

Request: Does inhibition at 1 µM meet or surpass 30% for CCCC(O)(CCC)C(CN1CCN(C)CC1)c1cccc(Br)c1 (stereo not shown) [Example 82, dihydrochloride] ?
Response: Not met

Request: Does inhibition at 1 µM meet or surpass 30% for CN1CCN(CC(c2cccc(Cl)c2)C2(O)CCC3CCCCC3C2)CC1 (stereo not shown) [Example 332, dihydrochloride] ?
Response: Met

Request: Does inhibition at 1 µM meet or surpass 30% for CC1(C)CC(C)(C)CC(O)(C(CN2CCNCC2)c2cccc(Cl)c2)C1 (stereo not shown) [Example 277, dihydrochloride] ?
Response: Not met

Request: Does inhibition at 1 µM meet or surpass 30% for Clc1cccc(C(CN2CCNCC2)C2CCCC2)c1 (stereo not shown) [Example 226, dihydrochloride] ?
Response: Met

Request: Does inhibition at 1 µM meet or surpass 30% for CCC1CCC(O)(C(CN2CCN(C)CC2)c2cccc(Cl)c2)CC1 (stereo not shown) [Example 336, dihydrochloride] ?
Response: Not met

Request: Does inhibition at 1 µM meet or surpass 30% for Clc1cccc(C(CN2CCNCC2)C2CCCCCC2)c1 (stereo not shown) [Example 234, dihydrochloride] ?
Response: Met

From: patent US7491723B2
